Cited source: patent US20230226096A1

Expression by entry:
System: HEK293 cells
Type: cell-based, human
TEST_CONDITIONS: luminescence from secreted Gluc in supernatant 24 hours after transfection of HEK293 cells; circular RNA encoding Gluc with the named IRES (UTR truncated to 675 nt)
QUANTITY_MEASURED: Expression

Farmington virus (nucleic acid) DNA: ACGACGCATAAGCAGAGAAACATAAGAGACTATGTTCATAGTCACCCTGTATTCATTATTGACTTTTATGACCTATTATTAGACCCTTCACGGGTAAATCCTTCTCCTTGCAGTTCTCGCCAAGTACCTCCAAAGTCAGAACG = 1.22E+05
Parechovirus D (nucleic acid, Parechovirus D) DNA: ACATGGGGCAGGTGTGCTGTGCCAAGAGCAACACTACGGTGGCCGAGCCGATGGTTCGTCACCACGTAGTAGGACTCCGTAGTGCTTGGTTACGGCGGACGTAAGTCAGTTGAGTGATGTCTAAGTGGCAAACCATGAGTACATGGTAACCTTGTGTGGACTCGCGGGACGGAATTTCCTATCCCATTGACTCCTTGTAGCAAGGTGGGTATACCCAACCACAATGGCAGCACCCTGGGTGGGAACCCAGGGGCCTGGATTAGTATCCAGTCACACAGCCTGATAGGGTGGCGGCTCAGCCACTGACCAGCGTCTCTAAATAATTGTGAGCTGTTCATGCACC = 3.10E+05
